Assay: folding stability dG unfold (combined trypsin and chymotrypsin); higher = more stable
Class key for folding stability dG unfold values: bottom end: < 3 kJ/mol; midrange: ≥ 3 kJ/mol and < 10 kJ/mol; top end: ≥ 10 kJ/mol

- SAGGSAGGNTITVFMPYSQARELAEELRDEGITVDIQPYPDWMFITVEIKVPKIDPEDNPDNKDSAGGSAGG [r6_392_TrROS]: midrange
- SAGGSAGNPKPVVLEVEVVLDIPPENPDVLRAQAEAVARALAKPGLRVEVLDYDPDKAAFTIRITGSAGGSA [r15_563_TrMRF]: midrange
- SAMLRIRVEYEDGRVEDIVIPLAGEDPPFGKEAVEEAAERIAKEVEEKYGLKNVKTEVEAFPVSPEELLSAG [r14_378_TrMRF]: midrange

Note: place this sequence into its band. Item: SKLKIEEIEINPNMPYTISVKLPDGFYISIQYDPGKPDQMKMNIFPPDGKKREHTIPANEPIRINFEIEPSA [r9_875_TrROS]
midrange

###

Assay: folding stability dG unfold from chymotrypsin proteolysis; higher = more stable
In this section we review reported folding stability dG unfold values for a set of sequences.
Hi! Could you send only the number? It should be in kcal/mol, unit omitted.

Answered examples (4):
- SMKIPVKTNDPEALKELLNKIKEILEKAKEKGYEIFPIPIILDNGKEIIFPIDPNDKIEEVIKKIEEALKSA [r9_127_TrMRF]: 1.38
- SAGGMKKYKVTVTIELTPPDGTTTTVTVTIDVDGDEKKALEEAEKVAEELKAAGYPVTIKEIKIYEESAGGS [r16_525_JUSTAS]: 4.51
- SAGGKKKIKIIEKKKINGKTILKIEVDGKKIIIIKTPNKVYIFVIDKNGKKKVIEMSPEEALKKLIEKSAGG [r13_98_TrROS_Hall]: 3.95
- SAGGVLPSDPVTVTVTIPVPAANAETDGRLPPQPQTINLEIGGPSEEAIRALLEALFPPGTEYEILLSAGGS [r16_282_JUSTAS]: 0.691

Quick one: folding stability dG unfold for SAGMTITIPAPPSLSPEEAVALAIERVKEEYPELLTPGSEVNIVVIREDPATGTSQTLTVTVPFPEGIFSAG [r5_916_JUSTAS] ?
1.57

Quick one: folding stability dG unfold for SAWIEIEKDPDGMFELEIPWPDGHPVKIHYNPDDGKPLHIMFPNGWHLQIWISPDGKIEIEDIHPIPPNSAG [r14_877_TrROS] ?
3.12

Quick one: folding stability dG unfold for SAGPNLENLEIVEIKAEVLPDNSVIVPLKVRNDNGEEEEVWGRVGNGIVTLTYPNGFPAVAFIPPSAFSAGG [r19_84_TrMRF] ?
0.576

Quick one: folding stability dG unfold for SAGGSAGGSAGGSVSSVSTTSSPVVDPETGPASTVTTHSVPGGPATTVVMTPDSTTTTGSAGGSAGGSAGGS [r10_384_JUSTAS] ?
1.43

Quick one: folding stability dG unfold for SAGGRAEEFATFLAELLRALLPPGEKVRATAVVTPEGVVVRVEHPLGFVAEALVKGDKLVRLELRPVSAGGS [r8_287_TrMRF] ?
3.82

Quick one: folding stability dG unfold for SAGGMVKTITKPMPLEELEKVYEEAKEAIEAGYEVIFTYPLPDGTTITIKTDYETKKIVEIKTSKPVSSAGG [r13_873_JUSTAS] ?
1.09

Quick one: folding stability dG unfold for SAGGSAGGSKVKIETVENEDGVKFERVVDEETGKTVFLAKNKKTGKLYLFVITPDGEIKVFELSAGGSAGGS [r12_474_TrROS_Hall] ?
2.6

Quick one: folding stability dG unfold for SAGGSAGGSAGKDIAKNIPPGAKILPIEPQPRGGGLYVKIEIEMPDPNGKKEKVTFTFPISAGGSAGGSAGG [r17_140_TrROS] ?
0.589

###

Assay: folding stability dG unfold (combined trypsin and chymotrypsin); higher = more stable
measuredQuantity: folding stability dG unfold (kcal/mol)
Hi! Could you send only the number? It should be in kcal/mol, unit omitted.

- SAGGSAGLRVRLADGSELSVSPIPDKLRVVVTLPNGARIPIDVEDGELVEIVRDPAVPADFYIEEISAGGSA [r15_709_JUSTAS]: 1.06
- SAGGGITITLPDGSVIEIEPVSTFTNEDGQPVTKIKATLTDPVTGTSVEADIYLFPDGGVKIDLKPGSAGGS [r16_651_TrMRF]: 2.35

Now, please, on to the next sequence.
Quick one: folding stability dG unfold for SAGGSAGGSAGGMKIRVTHPTNKTEEIIPVSELKKIPGPYTIEPLGPDPELAEKIKKLLSAGGSAGGSAGGS [r10_419_JUSTAS] ?
0.142

###

Experiment: folding stability dG unfold from chymotrypsin proteolysis; higher = more stable
In this section we review reported folding stability dG unfold values for a set of sequences.
Hi! Could you send only the number? It should be in kcal/mol, unit omitted.

Answered examples (4):
• SAGGSAGGSGMTLEEIAERLKEEYNAPEVKVTRDPSKPVYTVTVTLADGSTKTYTIYVPEELGSAGGSAGGS [r12_114_JUSTAS] = 3.73
• SAGGMKVIEVEMTADEVKALVKELAEKDDLKIYIYVDGKKIELTVDEIKKIPPENQKVTIIIEKKKESAGGS [r16_628_TrROS_Hall] = 3.11
• SAGGSAGGSAGGSMYIKIPGEPGDLREVVIEGKKVKVTPDANNPDKVTYTLPDGTKIALSAGGSAGGSAGGS [r4_488_JUSTAS] = 0.957
• SMKIPGMSAKEKLRKAIEALLEEAEKKGIKEITIKIYNKKTKKPIKEIKFKSKEELLKKIEEGDEVEIEFSA [r9_718_TrROS_Hall] = 1.71

Quick one: folding stability dG unfold for SMPLPFEATVTVPVRDEETGETYTVTVKVEAVNPAVPRPLPDGSIEYEPIPLETVLEIVEKAAEELAKALSA [r9_698_TrMRF] ?
1.55

Quick one: folding stability dG unfold for SAGKRMPVEEIANELAKEFPPGQTREVPIRNEDGGEWITLTVYHPNGKPVWKITIRPDGEIEVEWVPLSAGG [r19_0_TrROS] ?
2.31

Quick one: folding stability dG unfold for SAGGSAGGSAGGSGVSITTTLPVKTTVLQPFNTFENKLLLKEVEKTILTTVTLTLPPLLSAGGSAGGSAGGS [r4_326_JUSTAS] ?
-0.0828

Quick one: folding stability dG unfold for SEITIKLKVENLSEEELKKLAEELAKEGLFEITSIKVENGYVTITIKKKPKPPPKPEKKKVVFDKDGKPVSA [r9_830_TrROS_Hall] ?
2.58

Quick one: folding stability dG unfold for SAGGSAGGSAGGSGSITITYSSDGDKYSATFTVPDGTVVTVPNMSVDEAKKVAEKFLKSSAGGSAGGSAGGS [r4_383_JUSTAS] ?
1.08

Quick one: folding stability dG unfold for SAGGSAGGSAMEITITVPKENEEEVLEAAKKALEELGIEEVKVEKLEDGTYKVTARVKPGLSAGGSAGGSAG [r3_335_TrROS_Hall] ?
0.219

Quick one: folding stability dG unfold for SAGGEVLVIELSLEELKNLKPNQTVKIKLPDGSELEVRVEEVDGRLYLFVRNKENPEEVELIEEITIESAGG [r13_745_TrROS_Hall] ?
3.48

Quick one: folding stability dG unfold for SAGGSAGGSGSLEKVFTGENKIITIKYLPDGKVIITLHDPSTPKPIAVIEAKPSEIEEILKKESAGGSAGGS [r20_129_TrMRF] ?
1.86

Quick one: folding stability dG unfold for SAGGSAMPSPITVTTFPGGTARLVEFPDGSTAVVEIVEEGPERVLVTTTTPPDGVPTTSVVPAAELSAGGSA [r15_941_JUSTAS] ?
-0.0657

Quick one: folding stability dG unfold for SAGKKKKITIEIVIKPKTLEELENKIKEIAKKLGLKKIEKIEIVKIEKDKNGKIKKVVIKITLTEEALKSAG [r5_575_TrROS_Hall] ?
3.25

###

Experiment: folding stability dG unfold from trypsin proteolysis; higher = more stable
If the reported folding stability dG unfold equals or exceeds 1 kcal/mol, assign 1. If not, assign -1.

Please review the following examples before continuing.
* SAGMTITTTTPAEAAALAEELAKKNPVLNVTITVVDPETGTVTTIPFAVPAPLPRPYFDPETGEVTLEGSAG [r5_870_TrMRF] | 1
* SAGGSSSLSGLKNVTEEPRLAPDSDEEEVLITYENGYLERREPGVLEFYDPENGKVLSKKNVPYHHSAGGSA [r2_374_JUSTAS] | -1
* SAGEEKEAKALAEQYAAEFAPKLGMKYEVPEVKVEKDEKTGKITVTVTVKFTFPEPRTVTKKFTIVVPKSAG [r5_381_JUSTAS] | 1
* SAGGSAEVVEREEYFEEKLPNGEKVKVRRIVTEITPIPGLPGYRVEYTVTVEIGDEWETYPLEVAESAGGSA [r15_465_JUSTAS] | 1

Does the sequence SAGPPVEIPITIKIRYWKPDPDGPKPVEERTIPIPVRMPPDQLDDPAFNNFIKEALDELPPGIRMIEITSAG [r5_849_TrROS] have recorded folding stability dG unfold that is 1 kcal/mol or more?
-1

Does the sequence SAGGLNIKFEILEVYPSPNGMRMIIVRMTIEYPVPVYRRDPNGEWRPMPPGQEPVTIEIDFYIMVTPSAGGS [r16_693_TrROS] have recorded folding stability dG unfold that is 1 kcal/mol or more?
1

Does the sequence SAGGSMITFTVTPDATVEFPDGVTVTLIPGEGKWVATAGEKEIEAPYTPLPDDTYVVTLELPEGIAASAGGS [r16_245_JUSTAS] have recorded folding stability dG unfold that is 1 kcal/mol or more?
-1
